- tested on: EZH2 within the PRC2 complex (Homo sapiens (Human))
- Sequence (Q15910 whole entry): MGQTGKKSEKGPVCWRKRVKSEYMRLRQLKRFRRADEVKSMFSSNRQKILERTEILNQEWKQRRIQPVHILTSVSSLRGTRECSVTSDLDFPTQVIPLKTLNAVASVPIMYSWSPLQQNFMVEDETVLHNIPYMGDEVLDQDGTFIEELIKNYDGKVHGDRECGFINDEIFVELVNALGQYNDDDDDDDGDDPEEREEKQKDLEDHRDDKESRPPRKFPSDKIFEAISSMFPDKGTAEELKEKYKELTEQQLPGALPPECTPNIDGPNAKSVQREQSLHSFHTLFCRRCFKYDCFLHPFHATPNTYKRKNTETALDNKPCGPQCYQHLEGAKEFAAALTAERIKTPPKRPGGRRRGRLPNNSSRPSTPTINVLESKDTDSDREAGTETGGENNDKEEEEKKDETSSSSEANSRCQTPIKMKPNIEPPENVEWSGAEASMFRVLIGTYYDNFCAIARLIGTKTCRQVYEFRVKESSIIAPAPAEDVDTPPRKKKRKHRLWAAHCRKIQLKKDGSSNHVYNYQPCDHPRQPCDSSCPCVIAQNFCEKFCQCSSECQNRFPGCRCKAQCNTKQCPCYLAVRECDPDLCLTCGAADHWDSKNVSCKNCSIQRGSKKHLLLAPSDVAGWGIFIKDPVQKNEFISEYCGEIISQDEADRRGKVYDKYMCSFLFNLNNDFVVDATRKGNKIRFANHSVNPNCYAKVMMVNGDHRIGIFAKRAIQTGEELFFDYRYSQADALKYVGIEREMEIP
- Sequence (O75530 whole entry partner): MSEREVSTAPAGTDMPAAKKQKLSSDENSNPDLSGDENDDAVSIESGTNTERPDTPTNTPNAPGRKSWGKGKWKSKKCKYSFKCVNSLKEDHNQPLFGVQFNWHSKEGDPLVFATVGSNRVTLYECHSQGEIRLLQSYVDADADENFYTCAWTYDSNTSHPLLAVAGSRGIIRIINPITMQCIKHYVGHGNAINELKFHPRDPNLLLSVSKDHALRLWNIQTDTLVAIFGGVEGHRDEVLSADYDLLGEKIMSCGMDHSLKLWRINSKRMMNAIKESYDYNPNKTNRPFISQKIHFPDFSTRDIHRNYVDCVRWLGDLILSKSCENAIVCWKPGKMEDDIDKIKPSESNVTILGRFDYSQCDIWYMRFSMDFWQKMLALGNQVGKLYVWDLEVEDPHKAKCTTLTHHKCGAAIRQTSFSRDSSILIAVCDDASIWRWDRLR
- Sequence (Q15022 whole entry partner): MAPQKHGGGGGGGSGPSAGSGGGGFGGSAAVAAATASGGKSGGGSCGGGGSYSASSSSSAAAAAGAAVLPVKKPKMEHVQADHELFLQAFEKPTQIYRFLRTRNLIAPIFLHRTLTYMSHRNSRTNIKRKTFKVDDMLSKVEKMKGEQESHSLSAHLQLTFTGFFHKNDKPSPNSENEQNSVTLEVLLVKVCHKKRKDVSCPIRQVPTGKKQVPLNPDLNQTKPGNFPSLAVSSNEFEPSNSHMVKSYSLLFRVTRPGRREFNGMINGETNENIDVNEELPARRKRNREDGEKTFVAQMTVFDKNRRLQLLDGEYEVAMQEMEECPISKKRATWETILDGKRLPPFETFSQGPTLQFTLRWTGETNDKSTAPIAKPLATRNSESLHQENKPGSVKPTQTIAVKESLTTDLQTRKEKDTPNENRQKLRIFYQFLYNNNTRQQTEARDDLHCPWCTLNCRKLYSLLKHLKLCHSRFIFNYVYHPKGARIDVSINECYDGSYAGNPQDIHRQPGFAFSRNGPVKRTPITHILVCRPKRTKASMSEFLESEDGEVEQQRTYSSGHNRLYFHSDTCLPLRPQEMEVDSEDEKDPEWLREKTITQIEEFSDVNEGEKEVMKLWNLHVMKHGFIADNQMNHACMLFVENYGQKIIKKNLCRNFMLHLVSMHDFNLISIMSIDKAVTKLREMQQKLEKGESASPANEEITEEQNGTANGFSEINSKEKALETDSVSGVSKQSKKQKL
- Sequence (Q09028 whole entry partner): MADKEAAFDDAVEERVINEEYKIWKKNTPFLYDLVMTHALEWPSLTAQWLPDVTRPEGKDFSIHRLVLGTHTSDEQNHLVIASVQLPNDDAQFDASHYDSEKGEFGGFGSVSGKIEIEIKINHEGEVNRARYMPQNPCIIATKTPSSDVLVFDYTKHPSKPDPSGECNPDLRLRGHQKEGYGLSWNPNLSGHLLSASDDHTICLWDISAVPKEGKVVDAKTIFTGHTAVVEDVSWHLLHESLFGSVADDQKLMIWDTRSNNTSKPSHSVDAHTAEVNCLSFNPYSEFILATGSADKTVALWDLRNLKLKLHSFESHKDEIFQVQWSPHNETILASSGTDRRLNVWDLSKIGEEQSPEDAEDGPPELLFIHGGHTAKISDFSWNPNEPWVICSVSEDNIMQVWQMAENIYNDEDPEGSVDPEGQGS
- Sequence (Q6ZN18 whole entry partner): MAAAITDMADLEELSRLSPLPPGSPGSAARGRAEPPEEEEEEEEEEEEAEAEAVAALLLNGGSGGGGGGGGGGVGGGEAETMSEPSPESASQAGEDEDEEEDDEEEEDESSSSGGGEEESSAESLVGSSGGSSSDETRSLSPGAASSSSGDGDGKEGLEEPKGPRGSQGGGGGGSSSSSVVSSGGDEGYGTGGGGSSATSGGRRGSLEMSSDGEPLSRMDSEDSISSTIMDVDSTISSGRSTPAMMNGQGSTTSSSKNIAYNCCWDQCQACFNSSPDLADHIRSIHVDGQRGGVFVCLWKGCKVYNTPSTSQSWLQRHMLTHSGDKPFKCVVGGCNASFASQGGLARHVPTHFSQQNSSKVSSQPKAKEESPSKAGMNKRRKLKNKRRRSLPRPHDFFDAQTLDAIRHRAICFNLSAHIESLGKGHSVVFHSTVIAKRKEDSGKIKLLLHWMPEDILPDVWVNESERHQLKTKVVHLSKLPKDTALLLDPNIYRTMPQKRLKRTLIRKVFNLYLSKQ
- assay text: EZH2 methyltransferase SPA, biotinylated histone H3K27 peptide substrate (Assay Protocol 2)
- Assay type: biochemical
- study conditions: 3H-SAM
pIC50: −log10 of the molar value.
metric: pIC50

A: CCN(c1scc(C(=O)NCc2c(C)[nH]c(C)c(N)c2=O)c1C)[C@H]1CC[C@H](N(C)C)CC1
B: CCN(c1sc(Br)c(C(=O)NCc2c(C)[nH]c(C)cc2=O)c1C)[C@H]1CC[C@H](N(C)C)CC1
C: CCN(c1scc(C(=O)NCc2c(C)[nH]c(C)cc2=O)c1C)[C@H]1CC[C@H](N(C)C)CC1
Output the entries ranked by pIC50 from maximum down to minimum. Form entry: labels listed in requested order.
A, C, B
(A: 7.80, C: 7.00, B: 6.80)
